Source listed as paper PMC10382551.

Field: pKd. Provide a value for each of the binders that follow.
biological target: T1, NPNA4 peptide (Plasmodium falciparum (isolate 3D7)., not fully specified); test: BLI; details: both partners purified
T1 construct: source: synthetic peptide (InnoPep Inc)
T1 chain: NPNANPNANPNANPNA
Ends that are not written are not given here.
Answers are plain numbers, as −log10 of the molar value.

Assign pKd to the following record: 356R Fab (Fab, V domains shown, also called germline-reverted 356; source: ExpiCHO cells, purified (mAb Select PrismA or Capture Select, SEC)) VH: QVQLVESGGGVVQPGRSLRLSCAASGFTFSSYGMHWVRQTPGKGLEWVAVIWHDGSNKFYADSVKGRFTISRDNSKNMIYLQMNSLRVEDTAIYYCARDSLFYDHDNSGYYGYWGQGTLVTVSS VL: EIVMTQSPATVSVSPGERATLSCRASQSVTSKLAWYQQKPGQAPRLLIYGASTRATGIPARFSGSGSGTEFTLTISSLQSEDFAVYFCQQYNNGFTFGPGTKVDFK
7.10

Identify measured pKd corresponding to 239 Fab (Fab, V domains shown, also called mAb 239; source: ExpiCHO cells, purified (mAb Select PrismA or Capture Select, SEC)) VH: QVQLVESGGGVVQPGRSLRLSCAASRLTFRNFGMHWVRQTPGKGLEWVAVIWHDGSNKFYADSVEGRFTISRDNSKNTLYLQMNSLRDEDTAIYYCAKDWGGASDRVFDYWGRGTLVIVSS VL: DIQMTQSPSTLSASVGDRVTITCRASQSVSTSLAWYQQKPGKAPNLLIYQASTLYRGVPSRFSGSGSGTEFTLTIGSLQPDDFATYYCQHYNSYSRITFGQGTRLEIK
7.35

***
Return value of pKd for input 334 Fab (Fab, V domains shown, also called mAb 334; source: ExpiCHO cells, purified (mAb Select PrismA or Capture Select, SEC)) VH: QVQLVESGGGVVQPGRSLTLSCAASGFTFSNYGMHWVRQTPGKGLAWVAIIWYDGSKTYYEDSVKGRFTISRDNSKNTLYLQMNSLRVDDTAVYYCARVRHSSSRHGSAFDLWGQGTLVTVSS VL: VIQMTQSPSTLSASVGDRVTITCRASQSVSTWLAWYQQKPGQGPKLLIYEASSLESGVPSRFSGSGSGTEFTLTISSLQPDDFATYYCQQYNSYSFWTFGQGTKVEIK , no commentary.
7.30
